tested on: T47D; assay: NCI tumour cell line growth inhibition, 48 h
Active and inactive are the calls of the source. Rule as the data show it: active = GI50 up to about 1.1 µM and inactive = higher.
What GI50 was measured for each of the following?

IN: Report GI50 for C[C@@]12C[C@@H](c3ccccc3O1)N1CCCCSC1=N2
OUT: > 100 µM (inactive)

IN: Report GI50 for CC(=O)Nc1c(C)cc(OCC(=O)O)cc1C
OUT: > 100 µM (inactive)

IN: Report GI50 for CN(C)C(=S)C(Cl)(c1ccccc1)c1ccccc1
OUT: 22.4 µM (inactive)

IN: Report GI50 for C#CC(C)(C)Oc1cc(OC)c2c(=O)c3ccccc3n(C)c2c1
OUT: 2.84 µM (inactive)

IN: Report GI50 for O=c1[nH]c(=O)n(C2OC(CO)C(O)C2O)cc1OCCc1ccccc1 (centres undefined)
OUT: > 100 µM (inactive)

IN: Report GI50 for CCCCCCCCCCCC1NC(N)=NC(CCCO)=C1C(=O)OC (centres undefined)
OUT: 5.09 µM (inactive)

IN: Report GI50 for CCOC(=O)C1=C(C)N(Cc2ccc(Cl)cc2Cl)C2(O)C=CC(=O)C3C(=O)N(c4ccccc4)C(=O)C132 (centres undefined)
OUT: 1.55 µM (inactive)

IN: Report GI50 for CC(C)=NNc1ncnc2[nH]cnc12
OUT: 11.2 µM (inactive)

IN: Report GI50 for COC(=O)C1CCC(=O)N1CN(C(C)=O)c1ccccc1Cl (centres undefined)
OUT: > 100 µM (inactive)

----------
system: LOX IMVI; assay: NCI tumour cell line growth inhibition, 48 h
The source made the active and inactive calls. Rule as the data show it: active = GI50 up to about 1.1 µM and inactive = higher.
endpointName: GI50

IN: Report GI50 for COc1ccccc1N=C(S)Nc1ccccn1
OUT: > 100 µM (inactive)

IN: Report GI50 for N#Cc1c(N)nc(SCc2ccccc2)c(C#N)c1-c1ccc(O)cc1
OUT: 16.6 µM (inactive)

IN: Report GI50 for O=C1C=CC(=O)[C@H]2C3C=CC(C4C3C3(Cl)C(Cl)=C(Cl)[C@]4(Cl)C3(Cl)Cl)[C@@H]12 (some centres undefined)
OUT: 3.32 µM (inactive)

IN: Report GI50 for N#Cc1nc(-c2cnccn2)oc1N
OUT: > 100 µM (inactive)

----------
What GI50 was measured for each of the following?
tested on: M19-MEL; test: NCI tumour cell line growth inhibition, 48 h
Activity calls are given as the source filed them. Cut-off read from the data, not from the text of the source: active = GI50 up to about 1.1 µM and inactive = higher.

IN: Report GI50 for COc1ccc(C(C2=C(C)C(=O)c3ccccc3C2=O)c2ccc(C(C)C)cc(=O)c2O)cc1 (stereo not given)
OUT: 2.22 µM (inactive)

IN: Report GI50 for C/C=C1\Oc2ccc(OC)cc2S1(=O)=O
OUT: > 100 µM (inactive)

IN: Report GI50 for CN(/N=C\c1ccnc2ccccc12)c1ccc([N+](=O)[O-])cc1
OUT: 65.3 µM (inactive)

IN: Report GI50 for COC(=O)[C@@]1(C(C)CC(=O)O)CCCCC1=O (stereo not given in full)
OUT: > 100 µM (inactive)

IN: Report GI50 for CCCCCCCC/C=C\CCCCCCCCCCCC(=O)O
OUT: 26.2 µM (inactive)

----------
test system: U-251; test: NCI tumour cell line growth inhibition, 48 h
Active and inactive are the calls of the source. Rule as the data show it: active = GI50 up to about 1.1 µM and inactive = higher.
Would you mind answering with one of these outcomes? active, inactive

IN: Each molecule tested received a call. Report the one for O=C(CCCC(=O)Nc1ccc(Cl)cc1Cl)CC(=O)c1ccc2ccccc2c1 .
OUT: inactive

IN: Each molecule tested received a call. Report the one for C=C(CN(CC(=C)C(=O)c1ccccc1)C(C)(C)C)C(=O)c1ccccc1 .
OUT: inactive

IN: Each molecule tested received a call. Report the one for COc1ccc2c(c1)C(=O)CCc1cc(OC)c(OC)c(OC)c1-2 .
OUT: active

IN: Each molecule tested received a call. Report the one for Cc1cc(Cl)nc(Nc2nc3ccccc3[nH]2)n1 .
OUT: inactive

IN: Each molecule tested received a call. Report the one for O=S(=O)(O)c1ccc2c(/N=N/c3ccc(S(=O)(=O)O)c4ccccc34)c(O)c(S(=O)(=O)O)cc2c1 .
OUT: inactive
